Tested on: Escherichia coli
Assay: Bactericidal activity against Escherichia coli ATCC 25922 incubated for 4 hrs followed by culture spread on agar plates and cultured overnight in presence of MgCl2
Assay type: functional
Settings: ATCC 25922, 4 h, read-out: MBC>99.9
value kind: MBC

H-IRPIIRPIIRPIIRPIIRPIIRPI-NH2 | 8 µM
H-LKPLLKPLLKPLLKPLLKPLLKPL-NH2 | 16 µM
H-IKPIIKPIIKPIIKPIIKPIIKPIIKPI-NH2 | 64 µM
H-LRPLLRPLLRPLLRPLLRPLLRPLLRPL-NH2 | 2 µM
H-IKPIIKPIIKPIIKPIIKPIIKPI-NH2 | > 128 µM
H-IRPIIRPIIRPIIRPIIRPIIRPIIRPI-NH2 | 2 µM

Input: Output measured MBC for this item: H-LRPLLRPLLRPLLRPLLRPLLRPL-NH2
Output: 4 µM

Input: Output measured MBC for this item: H-LKPLLKPLLKPLLKPLLKPLLKPLLKPL-NH2
Output: 2 µM

====

Test system: Escherichia coli
Assay: Bactericidal activity against Escherichia coli ATCC 25922 incubated for 4 hrs followed by culture spread on agar plates and cultured overnight in presence of 0.5 mg/ml trypsin
Type: functional
Details: ATCC 25922, 4 h, read-out: MBC>99.9
value kind: MBC (µM)
// return numeric value only (unit: µM, not printed)

Past entries and their recorded results:
H-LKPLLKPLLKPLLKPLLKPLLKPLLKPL-NH2 | 1
H-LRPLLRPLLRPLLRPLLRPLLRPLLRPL-NH2 | 2
H-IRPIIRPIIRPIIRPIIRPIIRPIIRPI-NH2 | 2

Here is the next item to consider.
Input: Output measured MBC for this item: H-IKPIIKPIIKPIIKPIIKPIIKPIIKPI-NH2
Output: 16

====

Test system: Acinetobacter baumannii
Test: Bactericidal activity against Acinetobacter baumannii incubated for 4 hrs followed by culture spread on agar plates and cultured overnight
Assay type: functional
Conditions: read-out: MBC>99.9
value kind: MBC (µM)
// return numeric value only (unit: µM, not printed)

Past entries and their recorded results:
H-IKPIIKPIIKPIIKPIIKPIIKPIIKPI-NH2 | 2
H-LKPLLKPLLKPLLKPLLKPL-NH2 | 4
H-IRPIIRPIIRPIIRPIIRPIIRPIIRPIIRPI-NH2 | 4
H-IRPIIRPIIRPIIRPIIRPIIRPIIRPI-NH2 | 1

Input: Output measured MBC for this item: H-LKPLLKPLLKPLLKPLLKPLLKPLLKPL-NH2
Output: 1

Input: Output measured MBC for this item: H-LKPLLKPLLKPLLKPLLKPLLKPLLKPLLKPL-NH2
Output: 1

====

Tested on: Escherichia coli
Test: Antimicrobial activity against Escherichia coli 078 after 24 hrs by NCCLS-protocol based assay
Format: functional
Details: Escherichia coli, 078, 24 h
Values of MIC95 strictly less than 4 µM map to condition met, and values of at least 4 µM map to condition not met.

Input: Lab note: confirm whether the reported MIC95 for this substance is below 4 µM, equality not counting. substance: H-VRPVVRPVVRPVVRPVVRPVVRPVVRPV-NH2
Output: condition not met

====

Test system: Escherichia coli
Test: Bactericidal activity against Escherichia coli ATCC 25922 incubated for 4 hrs followed by culture spread on agar plates and cultured overnight in presence of 0.125 mg/ml chymotrypsin
Format: functional
Details: ATCC 25922, 4 h, read-out: MBC>99.9
value kind: MBC (µM)
// return numeric value only (unit: µM, not printed)

Past entries and their recorded results:
H-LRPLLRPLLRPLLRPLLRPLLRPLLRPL-NH2 | 2
H-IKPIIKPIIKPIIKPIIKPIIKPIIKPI-NH2 | 16
H-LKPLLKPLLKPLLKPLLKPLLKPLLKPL-NH2 | 1

Input: Output measured MBC for this item: H-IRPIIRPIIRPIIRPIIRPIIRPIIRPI-NH2
Output: 2

====

System: Escherichia coli
Experiment: Antimicrobial activity against Escherichia coli 078 after 24 hrs by NCCLS-protocol based assay
Type: functional
Details: Escherichia coli, 078, 24 h
value kind: MIC95 (µM)
// return numeric value only (unit: µM, not printed)

Past entries and their recorded results:
H-LKPLLKPLLKPLLKPLLKPLLKPLLKPLLKPL-NH2 | 2
H-IKPIIKPIIKPIIKPIIKPIIKPI-NH2 | 64
H-LRPLLRPLLRPLLRPL-NH2 | 16
H-LRPLLRPLLRPLLRPLLRPLLRPLLRPLLRPL-NH2 | 1
H-IRPIIRPIIRPIIRPI-NH2 | 16

Here is the next item to consider.
Input: Output measured MIC95 for this item: H-IRPIIRPIIRPIIRPIIRPIIRPI-NH2
Output: 2

====

Tested on: Pseudomonas aeruginosa
Assay: Antimicrobial activity against Pseudomonas aeruginosa CICC 21625 clinical isolates after 24 hrs by NCCLS-protocol based assay
Type: functional
Details: CICC 21625, 24 h
MIC95 values for the substances below.

H-VRPVVRPVVRPVVRPVVRPVVRPV-NH2 | > 64 µM

Input: Output measured MIC95 for this item: H-LKPLLKPLLKPLLKPL-NH2
Output: > 64 µM

Input: Output measured MIC95 for this item: H-LRPLLRPLLRPLLRPLLRPLLRPL-NH2
Output: 32 µM

Input: Output measured MIC95 for this item: H-IRPIIRPIIRPIIRPIIRPI-NH2
Output: > 64 µM

Input: Output measured MIC95 for this item: H-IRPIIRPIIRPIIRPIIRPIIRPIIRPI-NH2
Output: 64 µM

Input: Output measured MIC95 for this item: H-VKPVVKPVVKPVVKPVVKPVVKPV-NH2
Output: > 64 µM

====

Test system: Escherichia coli
Assay: Bactericidal activity against Escherichia coli ATCC 25922 incubated for 4 hrs followed by culture spread on agar plates and cultured overnight in presence of ZnCl2
Format: functional
Settings: ATCC 25922, 4 h, read-out: MBC>99.9
value kind: MBC

Input: Output measured MBC for this item: H-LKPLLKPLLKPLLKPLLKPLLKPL-NH2
Output: 2 µM

Input: Output measured MBC for this item: H-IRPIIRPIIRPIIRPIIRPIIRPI-NH2
Output: 4 µM

Input: Output measured MBC for this item: H-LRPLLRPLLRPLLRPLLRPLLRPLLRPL-NH2
Output: 2 µM

Input: Output measured MBC for this item: H-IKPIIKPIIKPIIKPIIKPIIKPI-NH2
Output: > 128 µM

Input: Output measured MBC for this item: H-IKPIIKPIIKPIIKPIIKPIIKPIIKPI-NH2
Output: 32 µM

====

Tested on: Escherichia coli
Assay: Bactericidal activity against Escherichia coli K99 incubated for 4 hrs followed by culture spread on agar plates and cultured overnight
Type: functional
Details: K99, 4 h, read-out: MBC>99.9
Values of MBC strictly less than 4 µM map to True, and values of at least 4 µM map to False.

H-VKPVVKPVVKPVVKPVVKPVVKPVVKPV-NH2 | False
H-IRPIIRPIIRPIIRPI-NH2 | False
H-VKPVVKPVVKPVVKPVVKPVVKPV-NH2 | False
H-IKPIIKPIIKPIIKPIIKPI-NH2 | False
H-LRPLLRPLLRPLLRPL-NH2 | False
H-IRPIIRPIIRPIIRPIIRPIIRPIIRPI-NH2 | True

Input: Lab note: confirm whether the reported MBC for this substance is below 4 µM, equality not counting. substance: H-IRPIIRPIIRPIIRPIIRPIIRPIIRPIIRPI-NH2
Output: True

Input: Lab note: confirm whether the reported MBC for this substance is below 4 µM, equality not counting. substance: H-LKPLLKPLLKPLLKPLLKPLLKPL-NH2
Output: True

Input: Lab note: confirm whether the reported MBC for this substance is below 4 µM, equality not counting. substance: H-LKPLLKPLLKPLLKPL-NH2
Output: False

Input: Lab note: confirm whether the reported MBC for this substance is below 4 µM, equality not counting. substance: H-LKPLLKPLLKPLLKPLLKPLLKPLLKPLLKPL-NH2
Output: True

Input: Lab note: confirm whether the reported MBC for this substance is below 4 µM, equality not counting. substance: H-IKPIIKPIIKPIIKPI-NH2
Output: False

Input: Lab note: confirm whether the reported MBC for this substance is below 4 µM, equality not counting. substance: H-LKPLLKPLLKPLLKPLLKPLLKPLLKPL-NH2
Output: True

Input: Lab note: confirm whether the reported MBC for this substance is below 4 µM, equality not counting. substance: H-LRPLLRPLLRPLLRPLLRPL-NH2
Output: False

====

Tested on: Escherichia coli
Experiment: Bactericidal activity against Escherichia coli ATCC 25922 incubated for 4 hrs followed by culture spread on agar plates and cultured overnight in presence of 50% serum albumin
Assay type: functional
Settings: ATCC 25922, 4 h, read-out: MBC>99.9
value kind: MBC (µM)
// return numeric value only (unit: µM, not printed)

Past entries and their recorded results:
H-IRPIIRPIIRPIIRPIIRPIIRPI-NH2 | 64
H-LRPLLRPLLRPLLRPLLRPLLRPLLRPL-NH2 | 16
H-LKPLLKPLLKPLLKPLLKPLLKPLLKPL-NH2 | 64
H-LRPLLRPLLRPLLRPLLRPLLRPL-NH2 | 32

Input: Quote Escherichia coli MBC for entry H-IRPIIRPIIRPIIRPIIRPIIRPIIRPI-NH2 .
Output: 16
